# System: recombinant human NAE enzyme (Homo sapiens)
# Construct: His (N); made in house; host or cells: Sf9 insect cells (baculovirus, Bac-to-Bac)
# Sequence (Q8TBC4 1-463): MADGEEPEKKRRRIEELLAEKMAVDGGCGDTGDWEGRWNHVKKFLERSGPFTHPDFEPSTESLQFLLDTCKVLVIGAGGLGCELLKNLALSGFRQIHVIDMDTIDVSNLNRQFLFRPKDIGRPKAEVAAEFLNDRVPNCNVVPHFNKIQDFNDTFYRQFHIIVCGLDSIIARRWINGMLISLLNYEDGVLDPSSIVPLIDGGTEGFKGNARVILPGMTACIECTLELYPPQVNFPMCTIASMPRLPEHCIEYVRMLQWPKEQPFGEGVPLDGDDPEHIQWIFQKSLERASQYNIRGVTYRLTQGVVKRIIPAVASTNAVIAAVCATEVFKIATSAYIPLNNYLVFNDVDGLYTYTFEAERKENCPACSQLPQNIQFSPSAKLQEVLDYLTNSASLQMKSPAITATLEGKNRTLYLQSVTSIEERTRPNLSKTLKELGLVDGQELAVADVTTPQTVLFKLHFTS
# Sequence (Q13564 1-534 partner): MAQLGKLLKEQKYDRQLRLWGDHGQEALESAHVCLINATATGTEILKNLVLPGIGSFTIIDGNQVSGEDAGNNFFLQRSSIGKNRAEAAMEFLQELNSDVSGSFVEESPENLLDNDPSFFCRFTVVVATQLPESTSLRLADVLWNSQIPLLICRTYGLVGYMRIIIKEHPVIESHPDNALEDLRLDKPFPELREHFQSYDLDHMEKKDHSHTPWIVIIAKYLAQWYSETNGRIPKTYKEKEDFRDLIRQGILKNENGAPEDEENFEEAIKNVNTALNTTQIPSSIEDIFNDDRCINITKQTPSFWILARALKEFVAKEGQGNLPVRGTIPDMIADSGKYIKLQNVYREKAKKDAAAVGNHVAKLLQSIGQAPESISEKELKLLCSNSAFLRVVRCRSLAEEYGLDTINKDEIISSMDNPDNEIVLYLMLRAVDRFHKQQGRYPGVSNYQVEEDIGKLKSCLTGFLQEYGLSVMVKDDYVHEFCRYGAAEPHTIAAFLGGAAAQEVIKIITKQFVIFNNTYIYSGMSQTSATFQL
# Protocol description: Nedd8-Activating Enzyme (NAE) HTRF Assay
# Type: biochemical
# Assay conditions: 20 μM ATP, bound given in nM
# Method: Following manufacturer instructions, baculoviruses were generated with the Bac-to-Bac Expression System (Invitrogen) for the following proteins: untagged NAEα (APPBP1; NP_003896.1), N-terminally His-tagged NAEJ (UBE1C; NP_003959.3), untagged SAEα (SAE1; NP_005491.1), N-terminally His-tagged SAE3 (UBA2; NP_005490.1), N-terminally His-tagged murine UAE (UBE1X; NP_033483). […] After incubation for 1 hour at 24° C., quantification of the FRET was performed on the Analyst™ HT 96.384 (Molecular Devices).

- Item smiles: "COc1cccc(OC)c1-c1nc2c(N[C@@H]3C[C@@H](COS(N)(=O)=O)[C@@H](O)C3)ncnc2[nH]1"
  IC50: "≤ 500 nM"
- Item smiles: "CN(C)c1ccccc1-c1nc2c(N[C@@H]3C[C@@H](COS(N)(=O)=O)[C@@H](O)C3)ncnc2[nH]1"
  IC50: "≤ 500 nM"
- Item smiles: "CO[C@@H]1CCc2ccccc2[C@@H]1Nc1cc(O[C@@H]2C[C@@H](COS(N)(=O)=O)[C@@H](O)C2)ncn1"
  IC50: "≤ 500 nM"
- Item smiles: "NS(=O)(=O)OC[C@H]1C[C@@H](Nc2cc(NCC3CCCCC3)ncn2)[C@H](O)[C@@H]1O"
  IC50: "≤ 500 nM"
- Item smiles: "NS(=O)(=O)OC[C@@H]1C[C@@H](Nc2ncnc3[nH]c(-c4ccccc4-c4ccccc4)nc23)C[C@@H]1O"
  IC50: "> 500 nM"
- Item smiles: "NS(=O)(=O)OC[C@@H]1C[C@@H](Oc2ncnc3nc(-c4cnn(Cc5ccccc5)c4)[nH]c23)C[C@@H]1O"
  IC50: "≤ 500 nM"
- Item smiles: "COc1ccccc1-c1nc2c(N[C@@H]3C[C@@H](COS(N)(=O)=O)[C@@H](O)C3)ncnc2[nH]1"
  IC50: "≤ 500 nM"
- Item smiles: "COc1cccc(-c2nc3c(N[C@@H]4C[C@@H](COS(N)(=O)=O)[C@@H](O)C4)ncnc3[nH]2)c1OC"
  IC50: "≤ 500 nM"
- Item smiles: "NS(=O)(=O)OC[C@@H]1C[C@@H](Oc2ccnc(N[C@H]3CCc4ccccc43)c2)C[C@@H]1O"
  IC50: "> 500 nM"
- Item smiles: "CO[C@H]1Cc2ccccc2[C@H]1Nc1cc(O[C@@H]2C[C@@H](COS(N)(=O)=O)[C@@H](O)C2)ncn1"
  IC50: "≤ 500 nM"
- Item smiles: "CN(C)C(=O)[C@H]1Cc2ccccc2[C@H]1Nc1cc(O[C@@H]2C[C@@H](COS(N)(=O)=O)[C@@H](O)C2)ncn1"
  IC50: "> 500 nM"
- Item smiles: "CO[C@H]1c2ccccc2C[C@H]1Oc1cc(O[C@@H]2C[C@@H](COS(N)(=O)=O)[C@@H](O)C2)ncn1"
  IC50: "> 500 nM"
- Item smiles: "NS(=O)(=O)OC[C@@H]1C[C@@H](Nc2ncnc(N[C@H]3CCc4ccccc43)n2)C[C@@H]1O"
  IC50: "≤ 500 nM"
- Item smiles: "CO[C@H]1Cc2ccccc2[C@H]1Oc1cc(O[C@@H]2C[C@@H](COS(N)(=O)=O)[C@@H](O)C2)ncn1"
  IC50: "> 500 nM"
